- assay.method.text: Plasma pharmacokinetics of CERC-301, single and 7-day repeated dose, healthy subjects
- Assay type: in vivo, human
- measurement.conditions: human, plasma, oral, Day 7; 8 to 20 mg; read-out: Median tmax

mol.smiles	Tmax
Cc1ccc(COC(=O)N2CC[C@H](CNc3ncccn3)[C@H](F)C2)cc1	1.5 to 3 h

----------
- assay.method.text: Plasma pharmacokinetics of CERC-301, single and 7-day repeated dose, healthy subjects
- Format: in vivo, human
- measurement.conditions: human, plasma, oral; young subjects; Day 7; 8 to 20 mg; read-out: Average t1/2

molecule	half-life
Cc1ccc(COC(=O)N2CC[C@H](CNc3ncccn3)[C@H](F)C2)cc1 [CERC-301]	17 to 21 h

----------
- assay.method.text: Plasma pharmacokinetics of CERC-301, single and 7-day repeated dose, healthy subjects
- Format: in vivo, human
- measurement.conditions: both sexes, human, plasma, oral, male and female subjects; read-out: Median tmax

mol.smiles	Tmax
Cc1ccc(COC(=O)N2CC[C@H](CNc3ncccn3)[C@H](F)C2)cc1	1.75 to 2 h

----------
- assay.method.text: Plasma pharmacokinetics of CERC-301, single and 7-day repeated dose, healthy subjects
- Format: in vivo, human
- measurement.conditions: human, plasma, oral, young subjects; Days 1 and 7; 8 to 20 mg; read-out: Median tmax

compound	Tmax
Cc1ccc(COC(=O)N2CC[C@H](CNc3ncccn3)[C@H](F)C2)cc1 [CERC-301]	1.5 to 3 h

----------
- assay.method.text: Plasma pharmacokinetics of CERC-301, single and 7-day repeated dose, healthy subjects
- Assay type: in vivo, human
- measurement.conditions: both sexes, human, plasma, oral, male and female subjects; Day 7; read-out: Average t1/2
- Description: The study was a randomized, double-blind, placebo-controlled parallel-group, three-part, repeated dose in-patient study investigating the safety, tolerability, PK, and PD of CERC-301 in healthy subjects. Subjects received 8, 12, 16 or 20 mg CERC-301 or matching placebo once-daily for 7 days. […] Pharmacokinetic parameters were determined for CERC-301 using noncompartmental methods based on plasma CERC-301 concentration data following the first and last dose of CERC-301. […]

mol.smiles	half-life
Cc1ccc(COC(=O)N2CC[C@H](CNc3ncccn3)[C@H](F)C2)cc1	21 to 24 h

----------
- assay.method.text: Plasma pharmacokinetics of single escalating doses in patients with symptomatic nOH associated with Parkinson's disease
- Type: in vivo, human
- measurement.conditions: human, plasma, oral; 12 mg single dose; 6-hour PK collection period; read-out: Area Under the Curve (AUC)
parameter: AUC (ng·h/mL)

mol.smiles	parameter	unit.descriptor	recorded.result
Cc1ccc(COC(=O)N2CC[C@H](CNc3ncccn3)[C@H](F)C2)cc1	AUC	ng·h/mL	795

----------
- assay.method.text: Plasma pharmacokinetics of single escalating doses in patients with symptomatic nOH associated with Parkinson's disease
- Assay type: in vivo, human
- measurement.conditions: human, plasma, oral; 8 mg single dose

mol.smiles	Cmax
Cc1ccc(COC(=O)N2CC[C@H](CNc3ncccn3)[C@H](F)C2)cc1	108 ng/mL

----------
- assay.method.text: Plasma pharmacokinetics of single escalating doses in patients with symptomatic nOH associated with Parkinson's disease
- Assay type: in vivo, human
- measurement.conditions: human, plasma, oral; 8 mg single dose; 6-hour PK collection period; read-out: Area Under the Curve (AUC)
parameter: AUC

mol.smiles	parameter	recorded.result
Cc1ccc(COC(=O)N2CC[C@H](CNc3ncccn3)[C@H](F)C2)cc1	AUC	473 ng·h/mL
